// data source = patent US20150322474A1

TEST SYSTEM: T1, VGAGIGFPAYDG peptide substrate
T1 chain: VGAGIGFPAYDG
READOUT LABEL: Linear ion count (%) (M + H = 717)
Give bare numbers, in %.

## Input Look at this protein and give its reported Linear ion count (%) (M + H = 717). PatGmac K598D (protein) GEDEIESAGVSASEVESSATKQKVALHPHDLDERIPGLADLHNQTLGDPQITIVIIDGDPDYTLSCFEGAEVSKVFPYWHEPAEPITPEDYAAFQSIRDQGLKGKEDEEALEAVIPDTKDRIVLNDHACHVTSTIVGQEHSPVFGIAPNCRVINMPQDAVIRGNYDDVMSPLNLARAIDLALELGANIIHCAFCRPTQTSEGEEILVQAIKKCQDNNVLIVSPTGNNSNESWCLPAVLPGTLAVGAAKVDGTPCHFSNWGGNNTKEGILAPGEEILGAQPCTEEPVRLTGTSMAAPVMTGISALLMSLQVQQGKPVDAEAVRTALLKTAIPCDPEVVEEPERCLRGFVNIPGAMKVLFGQ
## Output 100
